Biological target: VAV1 (Homo sapiens, UniProt P15498+Q96SW2)
Construct: A heterozygous VAV1 C-terminal HiBiT knock-in pool was generated at Monte Rosa Therapeutics from a clonal Jurkat cell; endogenous in cells; host or cells: Jurkat clone stably expressing LgBiT, homozygous GSPT1-G575N; heterozygous VAV1-HiBiT knock-in pool
Test: VAV1 degradation activity, VAV1-HiBiT knock-in Jurkat luminescence assay (Example A, Table 1)
Format: cell-based
Details: VAV1-HiBiT knock-in Jurkat cells, luminescence read at 6 and 24 hours; read-out: VAV1 DC50
VALUE_TYPE: DC50
Answer shape: numeric part, then the unit.

Examples from the recorded data:
>>> value_measured("O=C1CCC(c2cccc(-c3ccc(CN4Cc5nccn5CC4=O)cc3)c2Cl)C(=O)N1 (centres unmarked)")
"47.6 nM"
>>> value_measured("O=C1CCC(c2cccc(-c3ccc(-n4ccccc4=O)c(F)c3)c2Cl)C(=O)N1 (centres unmarked)")
"9.19 nM"
>>> value_measured("O=C1CCC(c2cccc(-c3ccc(N4CC(C(F)(F)F)OCC4=O)cc3)c2Cl)C(=O)N1 (centres unmarked)")
"49.2 nM"

DC50 recorded for this compound, O=C1CCC(c2cccc(-c3ccc4c(c3)CC(=O)N4Cc3cccnn3)c2Cl)C(=O)N1 (centres unmarked) , is 55.7 nM

DC50 recorded for this compound, O=C1CCC(c2cccc(-c3ccc(CCN4CCOCC4)cc3)c2Cl)C(=O)N1 (centres unmarked) , is 48.8 nM

DC50 recorded for this compound, O=C1CCC(c2cccc(-c3ccc(N4CCCCC4=O)cc3)c2Cl)C(=O)N1 (centres unmarked) , is 10.1 nM

DC50 recorded for this compound, CN1CC(=O)N(c2ccc(-c3cccc(C4CCC(=O)NC4=O)c3Cl)cc2)c2cnccc21 (centres unmarked) , is 11.1 nM

DC50 recorded for this compound, CC1CCCN(c2ccc(-c3cccc(C4CCC(=O)NC4=O)c3Cl)cc2)C1=O (centres unmarked) , is 6.62 nM

Data provenance is patent US12257247B2.
